- system tested: UniProt P17948
- Sequence (P17948 whole entry, looked up): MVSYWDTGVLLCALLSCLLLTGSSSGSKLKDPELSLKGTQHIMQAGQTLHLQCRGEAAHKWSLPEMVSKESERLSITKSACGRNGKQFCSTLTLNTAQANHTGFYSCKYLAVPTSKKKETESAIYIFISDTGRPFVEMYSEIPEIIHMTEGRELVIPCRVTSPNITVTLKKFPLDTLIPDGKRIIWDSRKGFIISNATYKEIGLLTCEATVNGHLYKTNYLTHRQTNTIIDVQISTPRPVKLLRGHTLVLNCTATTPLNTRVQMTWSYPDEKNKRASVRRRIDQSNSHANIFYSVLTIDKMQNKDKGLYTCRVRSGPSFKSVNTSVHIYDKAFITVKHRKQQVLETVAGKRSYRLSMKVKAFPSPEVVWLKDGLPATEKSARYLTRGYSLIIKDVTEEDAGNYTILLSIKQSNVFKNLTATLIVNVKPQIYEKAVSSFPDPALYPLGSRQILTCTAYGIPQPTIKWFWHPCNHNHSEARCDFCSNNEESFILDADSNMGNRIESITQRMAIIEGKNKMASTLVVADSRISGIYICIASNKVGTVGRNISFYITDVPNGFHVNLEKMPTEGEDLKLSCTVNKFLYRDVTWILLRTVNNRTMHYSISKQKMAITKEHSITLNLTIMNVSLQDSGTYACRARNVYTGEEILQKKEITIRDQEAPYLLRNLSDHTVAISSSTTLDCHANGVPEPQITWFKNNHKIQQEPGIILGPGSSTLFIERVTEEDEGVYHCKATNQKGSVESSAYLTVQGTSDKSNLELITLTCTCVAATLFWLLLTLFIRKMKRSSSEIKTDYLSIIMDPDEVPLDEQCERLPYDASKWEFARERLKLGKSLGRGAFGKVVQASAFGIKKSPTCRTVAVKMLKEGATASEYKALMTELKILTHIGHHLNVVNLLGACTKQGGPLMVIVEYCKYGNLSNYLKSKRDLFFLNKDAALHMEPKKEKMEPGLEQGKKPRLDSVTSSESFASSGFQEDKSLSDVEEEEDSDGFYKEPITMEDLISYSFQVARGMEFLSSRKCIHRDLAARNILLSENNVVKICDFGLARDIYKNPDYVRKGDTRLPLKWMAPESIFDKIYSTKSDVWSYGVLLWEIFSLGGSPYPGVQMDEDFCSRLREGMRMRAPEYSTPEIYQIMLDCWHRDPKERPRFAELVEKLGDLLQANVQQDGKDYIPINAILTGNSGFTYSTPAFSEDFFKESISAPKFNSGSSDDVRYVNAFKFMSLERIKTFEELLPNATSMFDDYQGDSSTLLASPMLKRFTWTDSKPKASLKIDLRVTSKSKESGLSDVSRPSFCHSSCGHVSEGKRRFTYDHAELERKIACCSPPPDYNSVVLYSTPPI
- measurement protocol: radiometric filter-binding kinase assay
- assay conditions: compound 100.0 µM; ATP 20 µM
measure: inhibition (%)

INSERT INTO measurements (molecule, system_tested, value_reported) VALUES
  ('CC(C)(C)Nc1c(COCc2ccccc2)nc2[nH]cnn12', 'UniProt P17948', 0),
  ('O=C(c1cccc(-c2cc3c(=O)[nH]cnc3s2)c1)N1CCOCC1', 'UniProt P17948', 74),
  ('CC(=O)Nc1nc2cnc(-c3ccccc3)cn2n1', 'UniProt P17948', 69),
  ('O=C(Nc1cnc2[nH]cnn2c1=O)c1ccccc1', 'UniProt P17948', 0),
  ('Cc1cccc(C)c1-c1cn2nc(N)nc2cn1', 'UniProt P17948', 22),
  ('O=c1cc(-c2ccccc2F)nc2[nH]ccn12', 'UniProt P17948', 39),
  ('O=c1c(NC(=S)NCc2ccccc2)cnc2[nH]ccn12', 'UniProt P17948', 28),
  ('CC(C)(C)Nc1c(C2CC2)nc2[nH]cnn12', 'UniProt P17948', 12),
  ('CC(=O)Nc1nc2cnc(-c3c(C)cccc3C)cn2n1', 'UniProt P17948', 9),
  ('O=C(Nc1cnc2[nH]ccn2c1=O)c1ccccc1', 'UniProt P17948', 31),
  ('Nc1cnc2c(-c3c(F)cccc3F)cccn2c1=O', 'UniProt P17948', 72),
  ('Nc1nc2cnc(-c3ccccc3)cn2n1', 'UniProt P17948', 82),
  ('COc1ccc(-c2cc3c(=O)[nH]cnc3s2)cc1OC', 'UniProt P17948', 39),
  ('COc1ccc(NC(=S)Nc2cnc3[nH]cnn3c2=O)cn1', 'UniProt P17948', 38),
  ('CC1CN(c2nc3ccccn3c(=O)c2N)CC(C)O1 (stereo not given)', 'UniProt P17948', 54);
